IC50 listing for selected compounds.
target: Histone deacetylase 1 (Homo sapiens, UniProt Q13547); assay: Inhibition of HDAC1 (unknown origin)
Sequence (Q13547 whole entry): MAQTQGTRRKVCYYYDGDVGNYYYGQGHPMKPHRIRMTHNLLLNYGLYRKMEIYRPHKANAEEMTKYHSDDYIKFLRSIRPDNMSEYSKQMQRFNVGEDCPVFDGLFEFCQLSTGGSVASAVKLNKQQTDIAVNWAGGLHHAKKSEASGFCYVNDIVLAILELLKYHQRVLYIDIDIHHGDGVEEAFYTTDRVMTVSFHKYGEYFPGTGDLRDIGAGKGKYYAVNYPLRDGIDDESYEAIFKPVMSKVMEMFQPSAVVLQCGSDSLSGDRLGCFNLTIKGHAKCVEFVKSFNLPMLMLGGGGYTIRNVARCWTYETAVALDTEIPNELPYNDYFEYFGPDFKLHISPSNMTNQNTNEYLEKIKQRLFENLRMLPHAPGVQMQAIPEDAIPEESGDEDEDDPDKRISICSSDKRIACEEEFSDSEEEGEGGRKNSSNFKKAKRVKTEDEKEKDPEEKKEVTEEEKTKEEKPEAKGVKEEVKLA
Answer format: number, then unit.

{"columns": ["structureSmilesString", "value"],
 "data": [
  ["O=C(CS)NCCCCNc1c(Cl)cc(Cl)c2cccnc12", "6.68 µM"]
]}

Qu. Query (compound): `O=C(NO)c1ccc(CC(=O)N(CCO)c2ccccc2)cc1` ; field requested: IC50
Ans. 0.842 µM

====

assay: Brain concentration in CD-1 mouse at 20 mg/kg measured after 0.5 hrs by LC-MS/MS analysis; format: ADME, organism-based; conditions: read-out: Ct
endpointName: concentration at 0.5 h (ng/mL)
Express it in ng/mL; write the number only.

Qu. Please look up its concentration at 0.5 h: `CCNNC(=O)c1ccc(CN2c3ccccc3C=Cc3ccncc32)cc1`
Ans. 11300
